Source of measurements: patent US5563142A

Measurement target: viral reverse transcriptase (Human immunodeficiency virus type 1 group M subtype B, UniProt P04585)
Construct: Viral reverse transcriptase is found in extracts from bacterial clones; made in house; host or cells: Escherichia coli (extracts of bacterial clones, by the procedure of Larder et al., EMBO J. 6:3133-3137, 1987)
Assay text: Viral reverse transcriptase inhibition, cell free assay
Format: biochemical, human immunodeficiency virus (HIV-1)
Condition summary: read-out: RT % INHIBITION (100 μM), 100 μM; poly rC or poly rG template
Could you please report measured inhibition at 100 µM for the items listed next?
Answers are plain numbers, in %.

Completed entries (count: 5):
Compound	inhibition at 100 µM / %
COc1cc2[nH]c(C(=O)N3CCN(c4ncccc4NC(C)C)CC3)cc2cc1Br [Example 94]	85
CC(C)Nc1cccnc1N1CCN(C(=O)c2cc3cc4c(cc3[nH]2)OCO4)CC1 [Example 90]	96
CC(C)Nc1cccnc1N(C)CCCCN(C)C(=O)c1cc2ccccc2[nH]1 [Example 124]	95
CCNc1cccnc1N1CCN(Cc2cc(C)c(O)c(C)c2)CC1 [Example 4]	58
CC(C)Nc1cccnc1N1CCCN(C(=O)c2cc3cc(F)ccc3[nH]2)CC1 [Example 84]	97

# batch size: 3; output inhibition at 100 µM per entry
1. CC(C)Nc1cccnc1N1CCN(C(=O)c2cc3cc(Br)ccc3[nH]2)CC1 [Example 93]
2. O=C(c1cc2cc(F)ccc2[nH]1)N1CCN(c2ncccc2NCC(F)(F)F)CC1 [Example 34]
3. CC(C)Nc1ccc(F)cc1N1CCN(C(=O)c2cc3ccccc3[nH]2)CC1 [Example 75]

Ans:
87
41
77

* * *

Measurement target: viral reverse transcriptase (Human immunodeficiency virus type 1 group M subtype B, UniProt P04585)
Construct: Viral reverse transcriptase is found in extracts from bacterial clones; made in house; host or cells: Escherichia coli (extracts of bacterial clones, by the procedure of Larder et al., EMBO J. 6:3133-3137, 1987)
Assay text: Viral reverse transcriptase inhibition, cell free assay
Assay type: biochemical, human immunodeficiency virus (HIV-1)
Condition summary: read-out: RT % INHIBITION (100 μM), 100 μM; poly rC or poly rG template
Where a name gives a salt, the structure may show the parent alone.
Could you please report measured inhibition at 100 µM for the items listed next?

Molecule	Reported result
CC(C)Nc1cccnc1N(C)CCCN(C)C(=O)c1cc2ccccc2[nH]1 [Example 53]	82 to 94%

# batch size: 8; output inhibition at 100 µM per entry
1. CC(C)(C)Nc1cccnc1N1CCN(C(=O)c2cc3cc(F)ccc3[nH]2)CC1 [Example 46, hydrochloride salt]
2. CC(C)Nc1cccnc1N1CCN(C(=O)c2cc3ccc(N(C)C)cc3[nH]2)CC1 [Example 95]
3. CC(C)Nc1ccnnc1N1CCN(C(=O)c2cc3ccccc3[nH]2)CC1 [Example 49]
4. CCOc1ccccc1N1CCN(C(=O)c2cc3ccccc3[nH]2)CC1 [Example 10]
5. O=C(c1cc2ccccc2[nH]1)N1CCN(c2ncccc2NC2CCCC2)CC1 [Example 56]
6. CCNc1cccnc1N1CCN(C(=O)c2cc3ccccc3o2)CC1 [Example 27]
7. CCOC(=O)COc1ccc2[nH]c(C(=O)N3CCN(c4ncccc4NC(C)C)CC3)cc2c1 [Example 60]
8. CC(C)Nc1cccnc1N(C)CCOC(=O)c1cc2ccccc2[nH]1 [Example 55]

Ans:
1: 89%; 2: 81 to 93%; 3: 84 to 94%; 4: 72 to 87%; 5: 79 to 93%; 6: 37 to 57%; 7: 89 to 92%; 8: 66 to 79%

# batch size: 2; output inhibition at 100 µM per entry
1. CC(C)Nc1cccnc1N1CCN(C(=O)c2cc3cc(OCC(=O)O)ccc3[nH]2)CC1 [Example 61, sodium salt]
2. CCNc1cccnc1N(C)CCCCCCN(C)C(=O)c1cc2ccccc2[nH]1 [Example 112]

Ans:
["91%", "74 to 82%"]

Entry COc1ccc2[nH]c(C(=O)N3CCN(c4ncccc4NC(C)(C)C)CC3)cc2c1 [Example 45, hydrochloride salt] , inhibition at 100 µM reported as 83 to 91%

* * *

Tested on: HIV in primary human peripheral blood lymphocytes
Assay text: Primary PBL assay: inhibition of viral replication (p24 & RNA)
Assay type: cell-based
Condition summary: Human immunodeficiency virus 1, Lymphocyte, primary human lymphocytes infected with HIV, days three and four, read-out: PBL INHIBITION OF VIRAL REPLICATION (p24 & RNA) ED50
Readout kind: EC50

Completed entries (count: 3):
CCNc1cccnc1N1CCN(C(=O)c2ccc3ccccc3c2)CC1 1000 to 10000 nM
CC(C)Nc1cccnc1N1CCCN(C(=O)c2cc3ccccc3[nH]2)CC1 < 1 nM
CCNc1cccnc1N1CCN(C(=O)c2ccc[nH]2)CC1 ≥ 1000 nM

Entry CNc1cccnc1N1CCN(C(=O)c2cc3ccccc3[nH]2)CC1 , EC50 reported as ≤ 1 nM

* * *

Could you please report measured EC50 for the items listed next?
Tested on: HIV in primary human peripheral blood lymphocytes
Assay text: Primary PBL assay: inhibition of viral replication (p24 & RNA)
Format: cell-based
Condition summary: Human immunodeficiency virus 1, Lymphocyte, primary human lymphocytes infected with HIV, days three and four, read-out: PBL INHIBITION OF VIRAL REPLICATION (p24 & RNA) ED50
Where a name gives a salt, the structure may show the parent alone.

Completed entries (count: 5):
Molecule	Measurement target	Reported result
CC(C)Nc1cccnc1N1CCN(C(=O)c2ccc[nH]2)CC1 [Example 69]	HIV in primary human peripheral blood lymphocytes	100 nM
CCN(CC)c1cccnc1N1CCN(C(=O)c2cc3ccccc3[nH]2)CC1 [Example 19]	HIV in primary human peripheral blood lymphocytes	100 to 1000 nM
CC(C)Nc1cccnc1N1CCN(C(=O)c2cc3cc4c(cc3[nH]2)OCO4)CC1 [Example 90]	HIV in primary human peripheral blood lymphocytes	< 1 nM
Cc1ccc2[nH]c(C(=O)N3CCN(c4ncccc4NC(C)C)CC3)cc2c1 [Example 89]	HIV in primary human peripheral blood lymphocytes	100 nM
CC(C)Nc1nccnc1N1CCN(C(=O)c2cc3cc(F)ccc3[nH]2)CC1 [Example 47]	HIV in primary human peripheral blood lymphocytes	1 to 10 nM

# batch size: 4; output EC50 per entry
1. COc1cc2cc(C(=O)N3CCN(c4ncccc4NC(C)C)CC3)[nH]c2cc1OC [Example 72]
2. CC(C)Nc1cccnc1N(C)CCCCN(C)C(=O)c1cc2ccccc2[nH]1 [Example 124]
3. CC(C)(C)Nc1cccnc1N1CCN(C(=O)c2cc3cc(F)ccc3[nH]2)CC1 [Example 46, hydrochloride salt]
4. CCNc1ccccc1N1CCN(C(=O)c2cc3cc(OC)ccc3[nH]2)CC1 [Example 28]

Ans:
["< 10 nM", "> 100 nM", "1 to 10 nM", "100 to 1000 nM"]

* * *

Could you please report measured inhibition at 100 µM for the items listed next?
Measurement target: viral reverse transcriptase (Human immunodeficiency virus type 1 group M subtype B)
Construct: Viral reverse transcriptase is found in extracts from bacterial clones; made in house; host or cells: Escherichia coli (extracts of bacterial clones, by the procedure of Larder et al., EMBO J. 6:3133-3137, 1987)
Assay text: Viral reverse transcriptase inhibition, cell free assay
Assay type: biochemical, human immunodeficiency virus (HIV-1)
Condition summary: read-out: RT % INHIBITION (100 μM), 100 μM; poly rC or poly rG template

CC(C)Nc1cccnc1N1CCN(C(=O)c2cc3cc(N)ccc3[nH]2)CC1 93 to 96%
CCNc1cccnc1N1CCN(Cc2cc(C)c(OC)c(C)c2)CC1 70 to 76%
CCCNc1cccnc1N1CCN(C(=O)c2cc3cc(F)ccc3[nH]2)CC1 44 to 74%

# batch size: 7; output inhibition at 100 µM per entry
1. CCNc1cccnc1N(C)CCCN(C)C(=O)c1cc2ccccc2[nH]1
2. CCNc1ccccc1N1CCN(C(=O)c2cc3ccccc3[nH]2)CC1
3. CC(C)Nc1cccnc1N1CCN(C(=O)c2cc3cccnc3[nH]2)CC1
4. COc1cc2[nH]c(C(=O)N3CCN(c4ncccc4NC(C)C)CC3)cc2cc1F
5. CCC(CC)Nc1cccnc1N1CCN(C(=O)c2cc3ccccc3[nH]2)CC1
6. CC(C)Nc1cccnc1N(C)CCCCCCN(C)C(=O)c1cc2ccccc2[nH]1
7. CC(C)Nc1cccnc1OCCOC(=O)c1cc2ccccc2[nH]1

Ans:
86 to 92%
75 to 83%
56 to 82%
85 to 91%
81 to 82%
70 to 80%
61 to 75%

Entry CC(C)Nc1cccnc1N1CCN(C(=O)c2cc3ccc(C=O)cc3[nH]2)CC1 , inhibition at 100 µM reported as 92 to 96%

* * *

Could you please report measured EC50 for the items listed next?
Test system: HIV in primary human peripheral blood lymphocytes
Assay text: Primary PBL assay: inhibition of viral replication (p24 & RNA)
Format: cell-based
Condition summary: Human immunodeficiency virus 1, Lymphocyte, primary human lymphocytes infected with HIV, days three and four, read-out: PBL INHIBITION OF VIRAL REPLICATION (p24 & RNA) ED50

Completed entries (count: 4):
CC(C)Nc1cccnc1N(C)CCOC(=O)c1cc2ccccc2[nH]1 0.1 to 1 µM
CC(C)Nc1cccnc1N1CCN(C(=O)c2cc3cc(N=CN(C)C)ccc3[nH]2)CC1 0.001 to 0.01 µM
CC(C)Nc1cccnc1N1CCN(Cc2cc3cc(F)ccc3[nH]2)CC1 0.003 to 0.01 µM
CC(C)Nc1cccnc1N1CCN(C(=O)c2cc3cc(O)ccc3[nH]2)CC1 < 0.001 µM

Entry CC(C)Nc1cc(F)ccc1N1CCN(C(=O)c2cc3ccccc3[nH]2)CC1 , EC50 reported as 0.01 to 0.1 µM
